Target: T1, P. vivax Reticulocyte Binding Protein 2b, residues 161–1454 (P. vivax strain Salvador I, UniProt A5K736 161-1454, DyLight 488 (NHS ester) in the FRET assay; biotin (BirA site) in the competition ELISA between human mAbs)
T1 chain: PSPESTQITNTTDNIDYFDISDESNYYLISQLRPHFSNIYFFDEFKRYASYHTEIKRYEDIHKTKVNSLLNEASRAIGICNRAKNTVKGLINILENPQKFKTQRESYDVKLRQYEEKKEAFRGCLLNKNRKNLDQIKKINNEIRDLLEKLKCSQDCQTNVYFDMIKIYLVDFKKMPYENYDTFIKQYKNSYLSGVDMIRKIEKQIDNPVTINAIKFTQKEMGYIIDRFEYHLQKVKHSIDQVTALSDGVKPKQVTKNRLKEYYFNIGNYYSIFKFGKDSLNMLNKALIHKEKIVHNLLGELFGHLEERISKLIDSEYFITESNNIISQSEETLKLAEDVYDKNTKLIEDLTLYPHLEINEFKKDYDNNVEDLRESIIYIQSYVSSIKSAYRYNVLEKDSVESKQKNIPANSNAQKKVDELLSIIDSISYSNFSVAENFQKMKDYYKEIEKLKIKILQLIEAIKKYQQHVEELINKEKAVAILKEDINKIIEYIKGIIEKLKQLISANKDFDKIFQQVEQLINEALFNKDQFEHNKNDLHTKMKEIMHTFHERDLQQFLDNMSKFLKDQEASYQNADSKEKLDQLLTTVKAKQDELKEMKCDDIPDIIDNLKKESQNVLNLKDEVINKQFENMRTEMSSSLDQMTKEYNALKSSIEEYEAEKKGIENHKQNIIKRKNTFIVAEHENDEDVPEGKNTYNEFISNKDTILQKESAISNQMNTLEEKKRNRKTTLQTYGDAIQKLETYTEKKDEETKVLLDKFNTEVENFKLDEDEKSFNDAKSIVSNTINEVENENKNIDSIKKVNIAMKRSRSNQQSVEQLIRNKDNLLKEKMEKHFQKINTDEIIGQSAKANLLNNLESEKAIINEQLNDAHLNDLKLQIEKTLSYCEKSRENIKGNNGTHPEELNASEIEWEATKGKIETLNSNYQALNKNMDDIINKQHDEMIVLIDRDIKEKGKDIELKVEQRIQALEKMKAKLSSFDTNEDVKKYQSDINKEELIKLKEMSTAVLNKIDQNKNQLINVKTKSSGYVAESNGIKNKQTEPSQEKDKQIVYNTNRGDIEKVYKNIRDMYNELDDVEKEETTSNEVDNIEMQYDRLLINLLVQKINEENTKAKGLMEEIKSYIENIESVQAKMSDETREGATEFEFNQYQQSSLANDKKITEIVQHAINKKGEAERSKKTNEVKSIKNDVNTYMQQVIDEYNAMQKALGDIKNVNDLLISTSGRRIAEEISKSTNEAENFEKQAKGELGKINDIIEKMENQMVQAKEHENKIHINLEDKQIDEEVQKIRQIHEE
Assay: BLI
A collection of binders and their measured koff
Give the number; s⁻¹ is assumed, so skip it.

Previously resolved entries follow.
PvRBP2b human mAb 273264 (antibody, V domains shown) VH: EVQLLESGGGLVRPGGSQRLSCAASGFTFTPYAMTWVRQAPGKGLEWLSTISGSGGSTSYADSVKGRFTISRDNSKNILYLQMDSLRAEDTALYYCTKDKDEYTFGHNAFDVWGRGTMVTVSS VL: SYELTQAPSVSVAPGQTARITCGGDNIGRTSVHWYQQKPGQAPVLVIFYDNDRPSGIPERFSGSNSGNMATLSISRVEVGDEADYYCQVWDSNNDHPVFGGGTKLTVV: 3.02e-05
PvRBP2b human mAb 258259 (antibody, V domains shown) VH: EVQLLESGGGLVRPGGSQRLSCAASGFTFTPYAMTWVRQAPGKGLEWLSTISGSGGSTYYADSVKGRFTISRDNSKNMLYLQMNSLTAEDTALYYCTKDKDEYTFGHNAFDVWGQGTMVTVSS VL: SYELTQAPSVSVAPGQTARITCGGDNIGRKTVNWYQQKPGQAPVLVIYYDNDRPSGIPERFSGSNSGNMATLSISRVEVGDEADYYCQVWDSNNDHPVFGGGTKLTVV: 7.57e-06
PvRBP2b human mAb 283284 (antibody, V domains shown) VH: QVQLQQWGAGLLKPSETLALTCTVYGGSSSGYYWNWIRQSPGKGLEWIGEISDSGSTIYNPSLESRVTMSVDTSKNQFSLKLTSVTAADTAVYYCAKAILTRYNWLDPWSQGTLVTVSS VL: DIVMTQSPSSLSASVGDRISISCRASQGVNSALAWYQQKPGKAPKLLIYDASTLESGVPSRFSGSGSGTDFALTINSLQPEDFATYYCQQFNSYPLTFGGGTKVEIK: 6e-05

Kindly review the next binder as well.
// field: koff; key: PvRBP2b human mAb 241242 (antibody, V domains shown) VH: EVQLLESGGGLVQPGGSLRLSCAVSGFTFRNYALSWVRQAPGKGLDWVSTISASGGATYYADSVKGHFTISRDNSKNILYLDMKSLRAEDTAIYYCARDGGSYTPYFFLDSWGQGALVTVSS VL: SYELTQPASVSVAPGQTAQITCGGNSIGRKSIHWYQHKPGQAPVLVISYDSDRPSGIPERFSGSNSGNTATLTISKVEAGDEADFYCQVRDSDNDHVVFGGGTKLTVL ; value = 2.13e-05
